System: 60 cancer cell lines (NCI 60 cancer cell line series)
test_description: NCI-DTP in vitro cancer screen, sulforhodamine B (SRB) growth inhibition, 48 hour exposure
Assay type: cell-based, human
experimental_setup: CNS SNB-75(I) CL12005
Structures can show the parent of a compound that is named as a salt.
reported_property: classification of cell line as Low(1), Medium(2), High(3) sensitivity to compound

compound | tested_on | value_measured
N.N.[Cl][Pt][Cl] [cisplatin, cis-Diamminedichloroplatinum (II), reference compound] | 60 cancer cell lines (NCI 60 cancer cell line series) | 2
COc1cc([C@@H]2c3cc4c(cc3[C@@H](O[C@@H]3O[C@@H]5CO[C@@H](c6cccs6)O[C@H]5[C@H](O)[C@H]3O)[C@H]3COC(=O)[C@H]23)OCO4)cc(OC)c1O [Teniposide] | 60 cancer cell lines (NCI 60 cancer cell line series) | 2
O=C1c2c(O)ccc(O)c2C(=O)c2c(NCCNCCO)ccc(NCCNCCO)c21 | 60 cancer cell lines (NCI 60 cancer cell line series) | 3
COc1cccc2c1C(=O)c1c(O)c3c(c(O)c1C2=O)C[C@@](O)(C(=O)CO)C[C@@H]3OC1CC(N)CC(C)O1.Cl (stereo partly drawn) | 60 cancer cell lines (NCI 60 cancer cell line series) | 2
CC[C@]1(O)C[C@H]2CN(CCc3c([nH]c4ccccc34)[C@@](C(=O)OC)(c3cc4c(cc3OC)N(C=O)[C@H]3[C@@](O)(C(=O)OC)[C@H](OC(C)=O)[C@]5(CC)C=CCN6CC[C@]43[C@@H]65)C2)C1 [Vincristine sulfate] | 60 cancer cell lines (NCI 60 cancer cell line series) | 2
COc1cccc2c1C(=O)c1c(O)c3c(c(O)c1C2=O)C[C@@](O)(C(C)=O)C[C@@H]3O[C@H]1C[C@H](N)[C@H](O)[C@H](C)O1 | 60 cancer cell lines (NCI 60 cancer cell line series) | 2
Sc1ncnc2nc[nH]c12 | 60 cancer cell lines (NCI 60 cancer cell line series) | 2
COc1cccc2c1C(=O)c1c(O)c3c(c(O)c1C2=O)C[C@@](O)(C(=O)CO)C[C@@H]3O[C@H]1C[C@H](N)[C@H](O)[C@H](C)O1 | 60 cancer cell lines (NCI 60 cancer cell line series) | 2
COc1cc([C@@H]2c3cc4c(cc3[C@@H](O[C@@H]3O[C@@H]5CO[C@@H](C)O[C@H]5[C@H](O)[C@H]3O)[C@H]3COC(=O)[C@H]23)OCO4)cc(OC)c1O [Etoposide] | 60 cancer cell lines (NCI 60 cancer cell line series) | 2
NC(=O)NO [Hydroxyurea] | 60 cancer cell lines (NCI 60 cancer cell line series) | 2
CS(=O)(=O)OCCCCOS(C)(=O)=O | 60 cancer cell lines (NCI 60 cancer cell line series) | 3
O=c1[nH]cc(F)c(=O)[nH]1 | 60 cancer cell lines (NCI 60 cancer cell line series) | 1

Source of measurements: patent US20030129629A1
